- System: TK10 (Kidney Carcinoma)
- protocol-description: combination Emax (second highest fraction inhibited in the dose matrix, 72 h); higher = more inhibition; extreme values may be limits of the assay
experimental-endpoint: combination Emax
// return a plain number; no unit text

Prompt: Record request: combination Emax value, item Cc1c2c(nn1C)CSCc1cc(n(C)n1)CSc1cc(c3ccccc3c1)OCCCc1c(C(=O)O)n(C)c3c-2c(Cl)ccc13 [AZD5991] + C[C@@H]1COCCN1C2=NC(=NC(=C2)C3(CC3)[S@](=N)(=O)C)C4=C5C=CNC5=NC=C4 [AZD6738] (first compound max 1 µM, 7x7, partner max 10 µM)
Response: 0.522

***
Prompt: Record request: combination Emax value, item COc1nnc2ccc(N3CCC(c4ccc(OCCN5CCN(C)C(=O)[C@H]5C)cc4)CC3)nn12 [AZD5153] + Cc1c2c(nn1C)CSCc1cc(n(C)n1)CSc1cc(c3ccccc3c1)OCCCc1c(C(=O)O)n(C)c3c-2c(Cl)ccc13 [AZD5991] (first compound max 1 µM, 7x7, partner max 1 µM)
Response: 0.593

====

- Tested on: VA-ES-BJ (Other Solid Carcinomas)
- protocol-description: combination Emax (second highest fraction inhibited in the dose matrix, 72 h); higher = more inhibition; extreme values may be limits of the assay
# binarize combination Emax: threshold 0.3 inclusive, high side t, low side f

A selection of reference data follows.
Prompt: Hi, just wondering whether C[C@@H](c1ccc2nccn2c1)n1nnc2ncc(-c3cnn(C)c3)nc21 [Savolitinib] + CC1(C)CCC(CN2CCN(c3ccc(C(=O)NS(=O)(=O)c4ccc(NCC5CCOCC5)c([N+](=O)[O-])c4)c(Oc4cnc5[nH]ccc5c4)c3)CC2)=C(c2ccc(Cl)cc2)C1 [Venetoclax] (first compound max 1 µM, 7x7, partner max 1 µM) shows combination Emax of 0.3 or higher.
Response: f

Prompt: Same question, Cc1cc2ncnn2cc1Nc1ncc2c(n1)n(C1CCOCC1)c(=O)n2C [AZD7648] + O=C(c1cc(Cc2n[nH]c(=O)c3ccccc23)ccc1F)N1CCN(C(=O)C2CC2)CC1 [Olaparib] (first compound max 10 µM, 7x7, partner max 10 µM) this time
Response: f

Prompt: Same question, CC(=O)c1c(C)c2cnc(Nc3ccc(N4CCNCC4)cn3)nc2n(C2CCCC2)c1=O [Palbociclib] + Cc1c2c(nn1C)CSCc1cc(n(C)n1)CSc1cc(c3ccccc3c1)OCCCc1c(C(=O)O)n(C)c3c-2c(Cl)ccc13 [AZD5991] (first compound max 10 µM, 7x7, partner max 1 µM) this time
Response: f

Prompt: Same question, CN(CCO)CC[C@H](CSc1ccccc1)Nc1ccc(S(=O)(=O)NC(=O)c2ccc(N3CCC([C@@H](O)c4ccccc4-c4ccc(Cl)cc4)CC3)cc2)cc1S(=O)(=O)C(F)(F)F [AZD4320] + CN(C)CCCOc1ccc(-c2ccc3ncc4c(c3c2)n(C2CCOCC2)c(=O)n4C)cn1 [AZD0156] (first compound max 1 µM, 7x7, partner max 1 µM) this time
Response: f

Prompt: Same question, COc1nnc2ccc(N3CCC(c4ccc(OCCN5CCN(C)C(=O)[C@H]5C)cc4)CC3)nn12 [AZD5153] + Cn1cnc2c(F)c(Nc3ccc(Br)cc3Cl)c(C(=O)NOCCO)cc21 [Selumetinib] (first compound max 1 µM, 7x7, partner max 10 µM) this time
Response: t

Prompt: Same question, CN(CCO)CC[C@H](CSc1ccccc1)Nc1ccc(S(=O)(=O)NC(=O)c2ccc(N3CCC([C@@H](O)c4ccccc4-c4ccc(Cl)cc4)CC3)cc2)cc1S(=O)(=O)C(F)(F)F [AZD4320] + C[C@@H]1COCCN1C2=NC(=NC(=C2)C3(CC3)[S@](=N)(=O)C)C4=C5C=CNC5=NC=C4 [AZD6738] (first compound max 1 µM, 7x7, partner max 10 µM) this time
Response: t

Prompt: Same question, CC1(C)CCC(CN2CCN(c3ccc(C(=O)NS(=O)(=O)c4ccc(NCC5CCOCC5)c([N+](=O)[O-])c4)c(Oc4cnc5[nH]ccc5c4)c3)CC2)=C(c2ccc(Cl)cc2)C1 [Venetoclax] + CCN(CCO)CCCOc1ccc2c(Nc3cc(CC(=O)Nc4cccc(F)c4)[nH]n3)ncnc2c1 [AZD2811] (first compound max 1 µM, 7x7, partner max 1 µM) this time
Response: t

Prompt: Same question, COc1nnc2ccc(N3CCC(c4ccc(OCCN5CCN(C)C(=O)[C@H]5C)cc4)CC3)nn12 [AZD5153] + CCN(CCO)CCCOc1ccc2c(Nc3cc(CC(=O)Nc4cccc(F)c4)[nH]n3)ncnc2c1 [AZD2811] (first compound max 1 µM, 7x7, partner max 1 µM) this time
Response: t

***
Prompt: Hi, just wondering whether CC1(C)CCC(CN2CCN(c3ccc(C(=O)NS(=O)(=O)c4ccc(NCC5CCOCC5)c([N+](=O)[O-])c4)c(Oc4cnc5[nH]ccc5c4)c3)CC2)=C(c2ccc(Cl)cc2)C1 [Venetoclax] + Cc1cc2ncnn2cc1Nc1ncc2c(n1)n(C1CCOCC1)c(=O)n2C [AZD7648] (first compound max 1 µM, 7x7, partner max 10 µM) shows combination Emax of 0.3 or higher.
Response: f

Prompt: Same question, NC1(C(=O)N[C@@H](CCO)c2ccc(Cl)cc2)CCN(c2ncnc3[nH]ccc23)CC1 [Capivasertib] + C[C@@H]1COCCN1C2=NC(=NC(=C2)C3(CC3)[S@](=N)(=O)C)C4=C5C=CNC5=NC=C4 [AZD6738] (first compound max 10 µM, 7x7, partner max 10 µM) this time
Response: t

Prompt: Same question, Cc1c2c(nn1C)CSCc1cc(n(C)n1)CSc1cc(c3ccccc3c1)OCCCc1c(C(=O)O)n(C)c3c-2c(Cl)ccc13 [AZD5991] + C=CCn1c(=O)c2cnc(Nc3ccc(N4CCN(C)CC4)cc3)nc2n1-c1cccc(C(C)(C)O)n1 [AZD1775] (first compound max 1 µM, partner max 1 µM) this time
Response: t

Prompt: Same question, CC(=O)c1c(C)c2cnc(Nc3ccc(N4CCNCC4)cn3)nc2n(C2CCCC2)c1=O [Palbociclib] + CN(CC[C@H](CSC1=CC=CC=C1)NC2=C(C=C(C=C2)S(=O)(=O)NC(=O)C3=CC=C(C=C3)N4CCC(CC4)[C@H](C5=CC=CC=C5C6=CC=C(C=C6)Cl)O)S(=O)(=O)C(F)(F)F)CCO [AZD4320] (first compound max 10 µM, 7x7, partner max 1 µM) this time
Response: t

Prompt: Same question, COc1cccc(OCCCN)c1-c1cc(Nc2cnc(C#N)cn2)n[nH]1 [Prexasertib] + CN(C)CCCOc1ccc(-c2ccc3ncc4c(c3c2)n(C2CCOCC2)c(=O)n4C)cn1 [AZD0156] (first compound max 1 µM, 7x7, partner max 1 µM) this time
Response: t

====

- System: EoL-1-cell (Acute Myeloid Leukemia);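 note: after 72 h of two-drug dosing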
- protocol-description: Bliss excess, mean over the matrix (fraction); higher = more synergy
experimental-endpoint: Bliss excess

Prompt: # value lookup — system EoL-1-cell (Acute Myeloid Leukemia), readout Bliss excess, item Cc1cc2ncnn2cc1Nc1ncc2c(n1)n(C1CCOCC1)c(=O)n2C [AZD7648] + COc1cc([C@@H]2c3cc4c(cc3[C@@H](O[C@@H]3O[C@@H]5CO[C@@H](C)O[C@H]5[C@H](O)[C@H]3O)[C@H]3COC(=O)[C@H]23)OCO4)cc(OC)c1O [Etoposide] (first compound max 10 µM, 7x7, partner max 10 µM);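 note: after 72 h of two-drug dosing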
Response: 0.191

***
Prompt: # value lookup — system EoL-1-cell (Acute Myeloid Leukemia), readout Bliss excess, item Cc1nc(Nc2ncc(C(=O)Nc3c(C)cccc3Cl)s2)cc(N2CCN(CCO)CC2)n1 [Dasatinib] + CC(=O)Nc1cccc(-n2c(=O)n(C3CC3)c(=O)c3c(Nc4ccc(I)cc4F)n(C)c(=O)c(C)c32)c1 [Trametinib] (first compound max 2 µM, 7x7, partner max 1 µM);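 note: after 72 h of two-drug dosing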
Response: -0.0157

====

- Test system: NCI-H358 (Lung Adenocarcinoma)
- protocol-description: combination Emax (second highest fraction inhibited in the dose matrix, 72 h); higher = more inhibition; extreme values may be limits of the assay
# binarize combination Emax: threshold 0.7 inclusive, high side TRUE, low side FALSE

Prompt: Hi, just wondering whether C=CCn1c(=O)c2cnc(Nc3ccc(N4CCN(C)CC4)cc3)nc2n1-c1cccc(C(C)(C)O)n1 [AZD1775] + Nc1ccn([C@@H]2O[C@H](CO)[C@@H](O)C2(F)F)c(=O)n1 [Gemcitabine] (first compound max 1 µM, partner max 0.3 µM) shows combination Emax of 0.7 or higher.
Response: FALSE

***
Prompt: Hi, just wondering whether Cn1cnc2c(F)c(Nc3ccc(Br)cc3Cl)c(C(=O)NOCCO)cc21 [Selumetinib] + CCN(CCO)CCCOc1ccc2c(Nc3cc(CC(=O)Nc4cccc(F)c4)[nH]n3)ncnc2c1 [AZD2811] (first compound max 10 µM, 7x7, partner max 1 µM) shows combination Emax of 0.7 or higher.
Response: FALSE

Prompt: Same question, COc1cccc(OCCCN)c1-c1cc(Nc2cnc(C#N)cn2)n[nH]1 [Prexasertib] + Cc1cc2ncnn2cc1Nc1ncc2c(n1)n(C1CCOCC1)c(=O)n2C [AZD7648] (first compound max 1 µM, 7x7, partner max 10 µM) this time
Response: TRUE

Prompt: Same question, Cc1cc2ncnn2cc1Nc1ncc2c(n1)n(C1CCOCC1)c(=O)n2C [AZD7648] + C=CCn1c(=O)c2cnc(Nc3ccc(N4CCN(C)CC4)cc3)nc2n1-c1cccc(C(C)(C)O)n1 [AZD1775] (first compound max 10 µM, partner max 1 µM) this time
Response: FALSE

Prompt: Same question, COc1cc2c(cc1OCCCCCOc1cc3c(cc1OC)C(=O)N1C=C(C)C[C@H]1C=N3)N=C[C@@H]1CC(C)=CN1C2=O [SG3199] + O=C(c1cc(Cc2n[nH]c(=O)c3ccccc23)ccc1F)N1CCN(C(=O)C2CC2)CC1 [Olaparib] (first compound max 0.001 µM, 7x7, partner max 10 µM) this time
Response: FALSE

Prompt: Same question, CS(=O)(=O)CCNCc1ccc(-c2ccc3ncnc(Nc4ccc(OCc5cccc(F)c5)c(Cl)c4)c3c2)o1 [Lapatinib] + C[C@@H](Oc1cc(-c2cnn(C3CCNCC3)c2)cnc1N)c1c(Cl)ccc(F)c1Cl [Crizotinib] (first compound max 10 µM, 7x7, partner max 10 µM) this time
Response: TRUE
